System: eIF4AIII;MLN51 SELOR (human;human?, UniProt P38919;O15234 1-411;137-283, |)
Sequence (P38919 whole entry, chain 1 of 2): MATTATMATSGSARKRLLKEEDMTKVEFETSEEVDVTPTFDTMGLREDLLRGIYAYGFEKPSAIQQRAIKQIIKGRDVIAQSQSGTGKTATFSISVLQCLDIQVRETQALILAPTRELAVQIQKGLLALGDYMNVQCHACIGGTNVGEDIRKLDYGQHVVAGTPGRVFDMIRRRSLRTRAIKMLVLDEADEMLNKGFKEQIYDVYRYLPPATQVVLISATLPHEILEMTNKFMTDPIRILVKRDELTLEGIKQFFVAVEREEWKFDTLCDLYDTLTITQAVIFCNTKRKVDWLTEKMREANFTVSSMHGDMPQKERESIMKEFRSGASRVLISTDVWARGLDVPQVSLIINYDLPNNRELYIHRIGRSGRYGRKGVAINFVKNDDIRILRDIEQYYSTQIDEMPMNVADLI
Sequence (O15234 137-283, chain 2 of 2): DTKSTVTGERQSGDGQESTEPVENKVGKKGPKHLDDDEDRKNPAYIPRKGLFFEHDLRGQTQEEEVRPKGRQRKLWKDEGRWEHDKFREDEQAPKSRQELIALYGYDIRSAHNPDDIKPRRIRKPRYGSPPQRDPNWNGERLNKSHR
Assay Text: SPR; AMPPNP; 5 mM Mg2+; SPR (Biacore 2000): 40 mM Tris-HCl pH 7.8, 50 mM NaCl, 4 mM DTT, 5 mM MgCl2, 0.002% Tween 20, 30 ul/min, 10-160 nM protein; temperature not stated
Measurement Setup: protein: recombinant;recombinant; tags: N-terminal His6;GST cleaved off (PreScission); copies: 1;1; label: 5' biotin; single strand
pKd: −log10 of the molar value.
Assay Endpoint: pKd

# input Which pKd is reported for this binder? AUGUCAUUCGAGUACAGUCUGUUCAGCUAGUCUCC (ssRNA) [35-mer ssRNA]
# output ~8.00

These data points were gathered from paper PMC1810427.
